# system-under-test: HCV NS3/4A protease genotype 1b mutant A156T (Hepatitis C virus genotype 1b, UniProt Q9WMX2, A1182T)
# run-description: biochemical
Answer each item with its documented EC90.

compound | EC90
CCC[C@H](NC(=O)[C@@H]1[C@H]2CCC[C@H]2CN1C(=O)[C@@H](NC(=O)[C@@H](NC(=O)c1cnccn1)C1CCCCC1)C(C)(C)C)C(=O)C(=O)NC1CC1 | > 100 µM
CCCC(NC(=O)C1N(C(=O)[C@@H](NC(=O)[C@@H](NC(=O)c2cnccn2)C2CCCCC2)C(C)(C)C)CC12CCCCC2)C(=O)C(=O)NC1CC1 (stereo partly shown) [Compound 37h] | > 100 µM
CC(C)(C)NC(=O)N[C@H](C(=O)N1C[C@H]2[C@@H]([C@H]1C(=O)NC(CC1CCC1)C(=O)C(N)=O)C2(C)C)C(C)(C)C (stereo partly shown) | > 100 µM

Would you kindly look at the next entry?
Query :: Using known records, supply EC90 for CC[C@@H]1C[C@]1(NC(=O)[C@@H]1C[C@@H]2CN1C(=O)[C@H](C(C)(C)C)NC(=O)OCC(C)(C)CCCCc1cccc3c1CN(C3)C(=O)O2)C(=O)NS(=O)(=O)C1CC1
Result :: > 1 µM

Measured values drawn from paper PMC4042666 for this set.
